Answer each item with its documented IC50.
target.system: Beta-adrenergic receptor kinase 1 (Homo sapiens, UniProt P25098)
Sequence (P25098 whole entry): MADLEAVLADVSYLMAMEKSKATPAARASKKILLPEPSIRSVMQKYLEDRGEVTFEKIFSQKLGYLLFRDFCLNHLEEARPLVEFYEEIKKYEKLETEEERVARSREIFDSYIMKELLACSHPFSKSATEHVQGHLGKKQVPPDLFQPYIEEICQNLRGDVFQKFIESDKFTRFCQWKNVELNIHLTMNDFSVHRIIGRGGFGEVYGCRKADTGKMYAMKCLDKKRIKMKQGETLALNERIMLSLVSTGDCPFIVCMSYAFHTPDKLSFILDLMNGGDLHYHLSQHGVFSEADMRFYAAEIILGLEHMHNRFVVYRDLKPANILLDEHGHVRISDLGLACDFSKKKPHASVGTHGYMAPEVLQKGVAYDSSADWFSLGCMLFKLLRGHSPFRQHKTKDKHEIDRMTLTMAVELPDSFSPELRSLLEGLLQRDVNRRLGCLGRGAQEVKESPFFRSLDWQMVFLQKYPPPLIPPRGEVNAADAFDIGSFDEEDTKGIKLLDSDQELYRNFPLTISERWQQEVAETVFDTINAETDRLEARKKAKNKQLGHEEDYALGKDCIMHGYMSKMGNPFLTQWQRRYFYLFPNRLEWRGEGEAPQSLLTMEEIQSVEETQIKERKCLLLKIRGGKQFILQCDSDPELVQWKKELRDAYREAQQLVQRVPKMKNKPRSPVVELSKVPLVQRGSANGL

Return IC50 for the following compound: `CCc1cc(Nc2nc(NCc3ccc(F)cn3)nc3cccc(OC)c23)n[nH]1` > 10 µM

Supply reported IC50 belonging to this compound: `CCc1cc(Nc2nc(NCc3ccc(Cl)cc3OC)nc3cccc(OC)c23)n[nH]1` > 10 µM
